# Tested System: M1 muscarinic receptor (Homo sapiens, UniProt P11229)
# Sequence (P11229 whole entry): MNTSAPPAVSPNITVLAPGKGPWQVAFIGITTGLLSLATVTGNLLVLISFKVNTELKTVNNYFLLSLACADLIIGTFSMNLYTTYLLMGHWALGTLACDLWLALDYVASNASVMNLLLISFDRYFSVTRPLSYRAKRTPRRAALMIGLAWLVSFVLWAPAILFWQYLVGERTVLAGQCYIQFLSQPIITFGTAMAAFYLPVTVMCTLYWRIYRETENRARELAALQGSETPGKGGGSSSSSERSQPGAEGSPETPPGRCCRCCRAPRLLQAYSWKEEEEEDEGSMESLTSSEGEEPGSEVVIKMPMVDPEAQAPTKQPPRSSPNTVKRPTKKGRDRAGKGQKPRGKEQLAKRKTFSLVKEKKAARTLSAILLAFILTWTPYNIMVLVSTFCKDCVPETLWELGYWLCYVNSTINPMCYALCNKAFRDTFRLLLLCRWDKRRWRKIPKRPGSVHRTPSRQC
# Procedure Summary: Functional mobilization of intracellular calcium (FLIPR), M1-CHO cells
# Condition: CHO cells expressing M1, calcium mobilization
pEC50: −log10 of the molar value.
Could you please report measured pEC50 for the items listed next?

>  <Compound>
CC(=O)N1CC[C@@H]2CC3(CCN(C4CCCCC4)CC3)c3ccccc3[C@@H]21 [Compound 27]

>  <Tested System>
M1 muscarinic receptor (Homo sapiens, UniProt P11229)

>  <Obs Value>
< 5.30

$$$$
>  <Compound>
O=C1C[C@@H]2[C@H](N1)c1ccccc1C21CCN(C[C@H]2C[C@@H]3CC[C@@H]2C3)CC1 [Compound 30]

>  <Tested System>
M1 muscarinic receptor (Homo sapiens, UniProt P11229)

>  <Obs Value>
> 5.70

$$$$
>  <Compound>
c1ccc2c(c1)C1OCCC1CC21CCN(C2CC3CCC(C3)C2)CC1 (centres unmarked) [Compound 8]

>  <Tested System>
M1 muscarinic receptor (Homo sapiens, UniProt P11229)

>  <Obs Value>
< 5.30

$$$$
>  <Compound>
O=C1C[C@@H]2CC3(CCN(C[C@@H]4C[C@H]5C=C[C@H]4C5)CC3)c3ccccc3[C@@H]2N1 [Compound 25]

>  <Tested System>
M1 muscarinic receptor (Homo sapiens, UniProt P11229)

>  <Obs Value>
> 5.70

$$$$
>  <Compound>
O=C1C[C@@H]2CC3(CCN(C4CCCCC4)CC3)c3ccccc3[C@@H]2N1 [Compound 7]

>  <Tested System>
M1 muscarinic receptor (Homo sapiens, UniProt P11229)

>  <Obs Value>
> 5.70

$$$$

For each listed entry, give its pEC50.
1. CCOC(=O)N1CCC(N2CCC3(CC2)C[C@H]2CC(=O)N(C)[C@H]2c2ccccc23)CC1 [Compound 12]
2. CCOC(=O)N1CCC(N2CCC3(CC2)C[C@H]2CC(=O)N[C@H]2c2ccccc23)CC1 [Compound 9]

Outgoing:
> 5.70
> 5.70

Incoming: So what's the measured pEC50 for this one? CN1C(=O)C[C@@H]2CC3(CCN(C4CCCCC4)CC3)c3ccccc3[C@@H]21 [Compound 24]
Outgoing: < 5.30

###

# Tested System: M2 muscarinic receptor (Homo sapiens)
# Sequence (P08172 whole entry): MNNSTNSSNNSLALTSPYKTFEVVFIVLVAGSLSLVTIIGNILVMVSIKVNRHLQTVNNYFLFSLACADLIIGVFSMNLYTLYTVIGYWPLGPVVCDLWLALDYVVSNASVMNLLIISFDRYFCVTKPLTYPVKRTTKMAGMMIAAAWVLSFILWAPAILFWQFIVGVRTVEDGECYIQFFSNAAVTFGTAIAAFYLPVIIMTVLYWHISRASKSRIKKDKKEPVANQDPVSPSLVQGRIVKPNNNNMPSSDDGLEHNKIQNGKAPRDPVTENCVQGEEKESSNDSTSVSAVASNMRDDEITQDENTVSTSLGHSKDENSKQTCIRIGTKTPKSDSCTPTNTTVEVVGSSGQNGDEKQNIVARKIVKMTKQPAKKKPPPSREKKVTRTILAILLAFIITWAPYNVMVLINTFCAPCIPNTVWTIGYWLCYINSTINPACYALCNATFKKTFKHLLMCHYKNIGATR
# Procedure Summary: Functional mobilization of intracellular calcium (FLIPR), M2-CHO cells
# Condition: CHO cells expressing M2, calcium mobilization
pEC50: −log10 of the molar value.
Could you please report measured pEC50 for the items listed next?

>  <Molecule>
O=C1C[C@@H]2CC3(CCN(C4CCCCC4)CC3)c3ccccc3[C@@H]2N1 [Compound 7]

>  <Tested System>
M2 muscarinic receptor (Homo sapiens)

>  <pEC50>
> 5.70

$$$$
>  <Molecule>
COCCN1C(=O)C[C@@H]2CC3(CCN(CC4CCCCC4)CC3)c3ccccc3[C@@H]21

>  <Tested System>
M2 muscarinic receptor (Homo sapiens)

>  <pEC50>
< 5.30

$$$$
>  <Molecule>
CN1C(=O)C[C@@H]2CC3(CCN(C4CCCCC4)CC3)c3ccccc3[C@@H]21 [Compound 23]

>  <Tested System>
M2 muscarinic receptor (Homo sapiens)

>  <pEC50>
> 5.70

$$$$
>  <Molecule>
c1ccc2c(c1)C1OCCC1CC21CCN(C2C[C@H]3CC[C@@H]2C3)CC1 (stereo partly shown)

>  <Tested System>
M2 muscarinic receptor (Homo sapiens)

>  <pEC50>
< 5.30

$$$$
>  <Molecule>
CC(=O)N1CC[C@@H]2CC3(CCN(C4CCCCC4)CC3)c3ccccc3[C@@H]21

>  <Tested System>
M2 muscarinic receptor (Homo sapiens)

>  <pEC50>
< 5.30

$$$$
>  <Molecule>
O=C1CC2CC3(CCN(C4CC5CCC(C5)C4)CC3)c3ccccc3C2O1 (stereo not shown)

>  <Tested System>
M2 muscarinic receptor (Homo sapiens)

>  <pEC50>
< 5.30

$$$$
>  <Molecule>
CCOC(=O)N1CCC(N2CCC3(CC2)C[C@H]2CC(=O)N(C)[C@H]2c2ccccc23)CC1

>  <Tested System>
M2 muscarinic receptor (Homo sapiens)

>  <pEC50>
> 5.70

$$$$
>  <Molecule>
CCOC(=O)N1CCC(N2CCC3(CC2)CC2CCOC2c2ccccc23)CC1 (stereo not shown)

>  <Tested System>
M2 muscarinic receptor (Homo sapiens)

>  <pEC50>
> 5.70

$$$$
>  <Molecule>
CCOC(=O)N1CCC(N2CCC3(CC2)C[C@H]2CC(=O)N[C@H]2c2ccccc23)CC1 [Compound 9]

>  <Tested System>
M2 muscarinic receptor (Homo sapiens)

>  <pEC50>
> 5.70

$$$$
>  <Molecule>
O=C1C[C@@H]2[C@H](N1)c1ccccc1C21CCN(C[C@H]2C[C@@H]3CC[C@@H]2C3)CC1

>  <Tested System>
M2 muscarinic receptor (Homo sapiens)

>  <pEC50>
5.30 to 5.70

$$$$

For each listed entry, give its pEC50.
1. c1ccc2c(c1)C1OCCC1CC21CCN(C2CC3CCC(C3)C2)CC1 (stereo not shown)
2. CN1C(=O)C[C@@H]2CC3(CCN(C4CC5CCC(C5)C4)CC3)c3ccccc3[C@@H]21 (stereo partly shown) [Compound 15]
3. CN1C(=O)C[C@@H]2CC3(CCN(C4CCCCC4)CC3)c3ccccc3[C@@H]21 [Compound 24]
4. CCOC(=O)N1CCC(N2CCC3(CC2)CC2CC(=O)OC2c2ccccc23)CC1 (stereo not shown)

Outgoing:
< 5.30
< 5.30
< 5.30
> 5.70

For each listed entry, give its pEC50.
1. O=C1C[C@@H]2CC3(CCN(C4CC5CCC(C5)C4)CC3)c3ccccc3[C@@H]2N1 (stereo partly shown)
2. c1ccc2c(c1)C1OCCC1CC21CCN(C2CCCCCC2)CC1 (stereo not shown)

Outgoing:
1. > 5.70
2. < 5.30
